system: LC4-1 (B-Lymphoblastic Leukemia); assay: combination Emax (second highest fraction inhibited in the dose matrix, 72 h); higher = more inhibition; extreme values may be limits of the assay
outcome measure: combination Emax
Just the number, please.

Data request, read-out combination Emax, for COc1nnc2ccc(N3CCC(c4ccc(OCCN5CCN(C)C(=O)[C@H]5C)cc4)CC3)nn12 [AZD5153] + C[C@@H]1COCCN1C2=NC(=NC(=C2)C3(CC3)[S@](=N)(=O)C)C4=C5C=CNC5=NC=C4 [AZD6738] (first compound max 1 µM, 7x7, partner max 10 µM)
0.975

Also NC1(C(=O)N[C@@H](CCO)c2ccc(Cl)cc2)CCN(c2ncnc3[nH]ccc23)CC1 [Capivasertib] + CC(C)n1c(=O)n(C)c2cnc3cc(F)c(-c4ccc(OCCCN5CCCCC5)nc4)cc3c21 [AZD1390] (first compound max 10 µM, 7x7, partner max 0.3 µM) ?
0.465

Also Cc1cc2ncnn2cc1Nc1ncc2c(n1)n(C1CCOCC1)c(=O)n2C [AZD7648] + COc1cc([C@@H]2c3cc4c(cc3[C@@H](O[C@@H]3O[C@@H]5CO[C@@H](C)O[C@H]5[C@H](O)[C@H]3O)[C@H]3COC(=O)[C@H]23)OCO4)cc(OC)c1O [Etoposide] (first compound max 10 µM, 7x7, partner max 10 µM) ?
1

###

test system: NCI-H2347 (Lung Adenocarcinoma); assay: combination Emax (second highest fraction inhibited in the dose matrix, 72 h); higher = more inhibition; extreme values may be limits of the assay
outcome measure: combination Emax
Just the number, please.

Here are 2 molecules together with their reported answers.
molecule="CC1(C)CCC(CN2CCN(c3ccc(C(=O)NS(=O)(=O)c4ccc(NCC5CCOCC5)c([N+](=O)[O-])c4)c(Oc4cnc5[nH]ccc5c4)c3)CC2)=C(c2ccc(Cl)cc2)C1 [Venetoclax] + COc1cc(Nc2ncc3c(n2)-c2ccc(Cl)cc2C(c2c(F)cccc2OC)=NC3)ccc1C(=O)O [Alisertib] (first compound max 1 µM, 7x7, partner max 10 µM)" test_system="NCI-H2347 (Lung Adenocarcinoma)" readout_number=0.18
molecule="CN(C)CCCOc1ccc(-c2ccc3ncc4c(c3c2)n(C2CCOCC2)c(=O)n4C)cn1 [AZD0156] + CCN(CCO)CCCOc1ccc2c(Nc3cc(CC(=O)Nc4cccc(F)c4)[nH]n3)ncnc2c1 [AZD2811] (first compound max 1 µM, 7x7, partner max 1 µM)" test_system="NCI-H2347 (Lung Adenocarcinoma)" readout_number=0.148

Data request, read-out combination Emax, for CC(=O)c1c(C)c2cnc(Nc3ccc(N4CCNCC4)cn3)nc2n(C2CCCC2)c1=O [Palbociclib] + Cn1cnc2c(F)c(Nc3ccc(Br)cc3Cl)c(C(=O)NOCCO)cc21 [Selumetinib] (first compound max 10 µM, 7x7, partner max 10 µM)
0.38

Also Cc1c2c(nn1C)CSCc1cc(n(C)n1)CSc1cc(c3ccccc3c1)OCCCc1c(C(=O)O)n(C)c3c-2c(Cl)ccc13 [AZD5991] + Cn1cnc2c(F)c(Nc3ccc(Br)cc3Cl)c(C(=O)NOCCO)cc21 [Selumetinib] (first compound max 1 µM, 7x7, partner max 3 µM) ?
0.41

Also NC1(C(=O)N[C@@H](CCO)c2ccc(Cl)cc2)CCN(c2ncnc3[nH]ccc23)CC1 [Capivasertib] + CC(=O)c1c(C)c2cnc(Nc3ccc(N4CCNCC4)cn3)nc2n(C2CCCC2)c1=O [Palbociclib] (first compound max 10 µM, 7x7, partner max 10 µM) ?
0.271

Also Cc1c2c(nn1C)CSCc1cc(n(C)n1)CSc1cc(c3ccccc3c1)OCCCc1c(C(=O)O)n(C)c3c-2c(Cl)ccc13 [AZD5991] + C=CCn1c(=O)c2cnc(Nc3ccc(N4CCN(C)CC4)cc3)nc2n1-c1cccc(C(C)(C)O)n1 [AZD1775] (first compound max 1 µM, partner max 1 µM) ?
0.357

Also Cc1c2c(nn1C)CSCc1cc(n(C)n1)CSc1cc(c3ccccc3c1)OCCCc1c(C(=O)O)n(C)c3c-2c(Cl)ccc13 [AZD5991] + CC1(C)CCC(CN2CCN(c3ccc(C(=O)NS(=O)(=O)c4ccc(NCC5CCOCC5)c([N+](=O)[O-])c4)c(Oc4cnc5[nH]ccc5c4)c3)CC2)=C(c2ccc(Cl)cc2)C1 [Venetoclax] (first compound max 1 µM, 7x7, partner max 1 µM) ?
0.138

Also C[C@@H](c1ccc2nccn2c1)n1nnc2ncc(-c3cnn(C)c3)nc21 [Savolitinib] + Cc1c2c(nn1C)CSCc1cc(n(C)n1)CSc1cc(c3ccccc3c1)OCCCc1c(C(=O)O)n(C)c3c-2c(Cl)ccc13 [AZD5991] (first compound max 1 µM, 7x7, partner max 1 µM) ?
0.107

Also Cc1c2c(nn1C)CSCc1cc(n(C)n1)CSc1cc(c3ccccc3c1)OCCCc1c(C(=O)O)n(C)c3c-2c(Cl)ccc13 [AZD5991] + C[C@@H](Nc1cc(F)cc(F)c1)c1cc(C(=O)N(C)C)cc2c(=O)cc(N3CCOCC3)oc12 [AZD8186] (first compound max 1 µM, 7x7, partner max 3 µM) ?
0.279

Also CN(C)CCCOc1ccc(-c2ccc3ncc4c(c3c2)n(C2CCOCC2)c(=O)n4C)cn1 [AZD0156] + C=CCn1c(=O)c2cnc(Nc3ccc(N4CCN(C)CC4)cc3)nc2n1-c1cccc(C(C)(C)O)n1 [AZD1775] (first compound max 1 µM, partner max 1 µM) ?
0.335

Also Cc1c2c(nn1C)CSCc1cc(n(C)n1)CSc1cc(c3ccccc3c1)OCCCc1c(C(=O)O)n(C)c3c-2c(Cl)ccc13 [AZD5991] + C[C@@H]1COCCN1C2=NC(=NC(=C2)C3(CC3)[S@](=N)(=O)C)C4=C5C=CNC5=NC=C4 [AZD6738] (first compound max 1 µM, 7x7, partner max 10 µM) ?
0.322

Also Cc1c2c(nn1C)CSCc1cc(n(C)n1)CSc1cc(c3ccccc3c1)OCCCc1c(C(=O)O)n(C)c3c-2c(Cl)ccc13 [AZD5991] + CCN(CCO)CCCOc1ccc2c(Nc3cc(CC(=O)Nc4cccc(F)c4)[nH]n3)ncnc2c1 [AZD2811] (first compound max 1 µM, 7x7, partner max 1 µM) ?
0.213

Also COc1nnc2ccc(N3CCC(c4ccc(OCCN5CCN(C)C(=O)[C@H]5C)cc4)CC3)nn12 [AZD5153] + CN(CC[C@H](CSC1=CC=CC=C1)NC2=C(C=C(C=C2)S(=O)(=O)NC(=O)C3=CC=C(C=C3)N4CCC(CC4)[C@H](C5=CC=CC=C5C6=CC=C(C=C6)Cl)O)S(=O)(=O)C(F)(F)F)CCO [AZD4320] (first compound max 1 µM, 7x7, partner max 1 µM) ?
0.518

###

system: H-EMC-SS (Chondrosarcoma); test: Bliss excess, mean over the matrix (fraction); higher = more synergy;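 further: after 72 h of two-drug dosing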
outcome measure: Bliss excess
Just the number, please.

Here are 4 molecules together with their reported answers.
molecule="O=C(c1cc(Cc2n[nH]c(=O)c3ccccc23)ccc1F)N1CCN(C(=O)C2CC2)CC1 [Olaparib] + CN(CC[C@H](CSC1=CC=CC=C1)NC2=C(C=C(C=C2)S(=O)(=O)NC(=O)C3=CC=C(C=C3)N4CCC(CC4)[C@H](C5=CC=CC=C5C6=CC=C(C=C6)Cl)O)S(=O)(=O)C(F)(F)F)CCO [AZD4320] (first compound max 10 µM, 7x7, partner max 1 µM)" readout_number=0.0051
molecule="CN(CCO)CC[C@H](CSc1ccccc1)Nc1ccc(S(=O)(=O)NC(=O)c2ccc(N3CCC([C@@H](O)c4ccccc4-c4ccc(Cl)cc4)CC3)cc2)cc1S(=O)(=O)C(F)(F)F [AZD4320] + Nc1ccn([C@@H]2O[C@H](CO)[C@@H](O)C2(F)F)c(=O)n1 [Gemcitabine] (first compound max 1 µM, 7x7, partner max 0.3 µM)" readout_number=0.0342
molecule="Cc1nc(-c2cn3c(n2)-c2ccc(-c4cnn(C(C)(C)C(N)=O)c4)cc2OCC3)n(C(C)C)n1 [Taselisib] + O=C(Nc1ccc2[nH]nc(-c3ccncc3)c2c1)[C@@H]1CCN(CC(=O)N2CCN(c3ccc(-c4ncccn4)cc3)CC2)C1 [SCH772984] (first compound max 10 µM, 7x7, partner max 5 µM)" readout_number=0.156
molecule="Cc1c2c(nn1C)CSCc1cc(n(C)n1)CSc1cc(c3ccccc3c1)OCCCc1c(C(=O)O)n(C)c3c-2c(Cl)ccc13 [AZD5991] + C1CN(CCC1(C(=O)N[C@@H](CCO)C2=CC=C(C=C2)Cl)N)C3=NC=NC4=C3C=CN4 [Capivasertib] (first compound max 1 µM, 7x7, partner max 3 µM)" readout_number=-0.0227

Data request, read-out Bliss excess, for Cn1cnc2c(F)c(Nc3ccc(Br)cc3Cl)c(C(=O)NOCCO)cc21 [Selumetinib] + CCN(CCO)CCCOc1ccc2c(Nc3cc(CC(=O)Nc4cccc(F)c4)[nH]n3)ncnc2c1 [AZD2811] (first compound max 10 µM, 7x7, partner max 1 µM)
-0.0233

Also CC1(C)CCC(CN2CCN(c3ccc(C(=O)NS(=O)(=O)c4ccc(NCC5CCOCC5)c([N+](=O)[O-])c4)c(Oc4cnc5[nH]ccc5c4)c3)CC2)=C(c2ccc(Cl)cc2)C1 [Venetoclax] + COc1cc(Nc2ncc3c(n2)-c2ccc(Cl)cc2C(c2c(F)cccc2OC)=NC3)ccc1C(=O)O [Alisertib] (first compound max 1 µM, 7x7, partner max 10 µM) ?
0.0092

These measurements were taken from the supplement of paper PMC11061612.
